Listing of entries alongside the reported pEC50.
Molecular target: horseradish peroxidase (HRP) tagged delF508-CFTR (Homo sapiens, UniProt P13569, DEL508-508)
Construct: expressed in transfected cells
Sequence (P13569 with tags, fused parts or gaps DEL508-508): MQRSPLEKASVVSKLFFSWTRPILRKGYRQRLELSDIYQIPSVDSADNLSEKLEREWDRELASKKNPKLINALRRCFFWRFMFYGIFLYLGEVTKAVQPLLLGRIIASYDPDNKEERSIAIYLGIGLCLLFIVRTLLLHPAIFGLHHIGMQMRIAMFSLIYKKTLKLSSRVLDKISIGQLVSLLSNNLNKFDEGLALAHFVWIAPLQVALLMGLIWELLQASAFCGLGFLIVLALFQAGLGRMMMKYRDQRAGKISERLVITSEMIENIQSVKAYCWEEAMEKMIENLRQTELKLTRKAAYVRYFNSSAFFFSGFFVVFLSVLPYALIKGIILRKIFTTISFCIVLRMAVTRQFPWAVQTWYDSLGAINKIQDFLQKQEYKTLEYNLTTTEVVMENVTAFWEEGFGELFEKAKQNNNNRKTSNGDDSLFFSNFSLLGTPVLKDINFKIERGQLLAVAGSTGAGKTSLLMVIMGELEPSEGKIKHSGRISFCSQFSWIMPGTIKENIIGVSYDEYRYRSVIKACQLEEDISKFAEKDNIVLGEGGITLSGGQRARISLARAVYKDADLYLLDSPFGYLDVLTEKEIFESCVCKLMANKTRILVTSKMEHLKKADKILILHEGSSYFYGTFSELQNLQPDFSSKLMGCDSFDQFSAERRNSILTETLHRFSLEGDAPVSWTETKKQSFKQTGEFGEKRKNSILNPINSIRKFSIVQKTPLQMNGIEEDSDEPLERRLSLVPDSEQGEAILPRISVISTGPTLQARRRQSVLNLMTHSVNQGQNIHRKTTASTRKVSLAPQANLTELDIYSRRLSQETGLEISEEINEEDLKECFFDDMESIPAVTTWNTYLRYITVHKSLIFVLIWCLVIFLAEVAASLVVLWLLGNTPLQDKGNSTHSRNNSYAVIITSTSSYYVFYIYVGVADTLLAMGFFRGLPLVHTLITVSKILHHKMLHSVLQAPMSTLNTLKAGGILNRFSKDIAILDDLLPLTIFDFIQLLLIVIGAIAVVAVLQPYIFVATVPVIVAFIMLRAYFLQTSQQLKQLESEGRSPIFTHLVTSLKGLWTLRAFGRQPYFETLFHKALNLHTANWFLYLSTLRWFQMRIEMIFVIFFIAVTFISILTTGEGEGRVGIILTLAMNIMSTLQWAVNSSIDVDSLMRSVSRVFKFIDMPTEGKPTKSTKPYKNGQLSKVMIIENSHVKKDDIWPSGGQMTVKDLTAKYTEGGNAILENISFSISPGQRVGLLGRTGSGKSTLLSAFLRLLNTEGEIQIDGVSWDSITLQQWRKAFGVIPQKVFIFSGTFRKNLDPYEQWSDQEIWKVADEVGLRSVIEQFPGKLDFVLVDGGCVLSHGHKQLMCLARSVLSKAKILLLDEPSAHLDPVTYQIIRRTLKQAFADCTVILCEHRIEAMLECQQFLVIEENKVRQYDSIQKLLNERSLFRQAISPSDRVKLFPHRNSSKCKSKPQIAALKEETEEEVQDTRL
Assay: Measurement of delF508-CFTR-HRP surface expression in CFBE41o- cells
Assay type: cell-based
Description: Measurement of delF508-CFTR-HRP Surface Expression in CFBE41o-Cells This assay quantifies the cell surface expressions of the mutant CFTR channel using an extracellular HRP tag. […] The median activity for the lowest concentration of the compounds on each assay plate was calculated and this value was used to normalize the signal for each well on the respective plate. […] The median value was determined and used to calculate compound activities as described below. […]
Counter-ions that a name gives are not always drawn.
Convention used: pEC50 is expressed as -log10 of the molar concentration.

Some solved cases for reference:
- molecule: "Cc1ccccc1-c1nc(NS(=O)(=O)c2cccc(N3C4CCCC3CC(C(=O)O)C4)n2)ccc1C(F)(F)F (stereo not shown)"
  recorded-result: 5.88
- molecule: "Cc1ccccc1-c1nc(NS(=O)(=O)c2cccc(N3CC4CCC(C3)N4)n2)ccc1C(F)(F)F [Example 181, Hydrochloride]"
  recorded-result: 5.57
- molecule: "Cc1ccccc1-c1nc(NS(=O)(=O)c2cccc(N3[C@@H]4CC[C@H]3[C@@H](C(=O)O)C4)n2)ccc1C(F)(F)F"
  recorded-result: 5.53

Prompt line: I'd like to know its pEC50. The molecule in question is Cc1ccccc1-c1nc(NS(=O)(=O)c2cccc(N3C4CCC3CC(C(=O)O)C4)n2)ccc1C(F)(F)F (stereo not shown)
Response line: 5.76

---

Listing of entries alongside the reported EC50.
biological target: horseradish peroxidase (HRP) tagged delF508-CFTR (Homo sapiens, UniProt P13569, DEL508-508); construct: expressed in transfected cells; assay: Measurement of delF508-CFTR-HRP surface expression in CFBE41o- cells; type: cell-based; conditions: delF508-CFTR-HRP surface expression, CFBE41o- cells; read-out: DelF508-CFTR-HRP EC50
Structures can show the parent of a compound that is named as a salt.
Kindly answer with a numeric value in nM, unit omitted.

- compound: "Nc1cccc(S(=O)(=O)Nc2ccc(C(F)(F)F)c(-c3cccc(C(F)(F)F)c3)n2)n1"
  EC50 (nM): 2300
- compound: "Cc1ccc(F)cc1-c1nc(NS(=O)(=O)c2cccc(N[C@@H]3COCC[C@H]3O)n2)ccc1Cl"
  EC50 (nM): 1100
- compound: "Cc1ccccc1-c1nc(NS(=O)(=O)c2cccc(N3CCN(C(=O)OC(C)(C)C)CC3)n2)ccc1C(F)(F)F"
  EC50 (nM): 743
- compound: "Nc1cccc(S(=O)(=O)Nc2ccc(C(F)(F)F)c(-c3ccccc3Cl)n2)n1"
  EC50 (nM): 2090
- compound: "Cc1ccccc1-c1nc(NS(=O)(=O)c2cccc(N3CCN(C(=O)OC(C)(C)C)[C@@H](C(=O)O)C3)n2)ccc1C(F)(F)F"
  EC50 (nM): 2810

Prompt line: I'd like to know its EC50. The compound in question is Cc1ccccc1-c1nc(NS(=O)(=O)c2cccc(N3C[C@@H]4C[C@H]3CN4)n2)ccc1C(F)(F)F [Example 203, hydrochloride]
Response line: 2980

Prompt line: I'd like to know its EC50. The compound in question is Nc1cccc(S(=O)(=O)Nc2ccc(Cl)c(-c3c(F)ccc(F)c3F)n2)n1
Response line: 2730

---

molecular target: horseradish peroxidase (HRP) tagged delF508-CFTR (Homo sapiens, UniProt P13569, DEL508-508); construct: expressed in transfected cells; assay: Measurement of delF508-CFTR-HRP surface expression in CFBE41o- cells; assay type: cell-based; settings: CFBE41o- cells; mean of at least two replicates; read-out: DelF508-CFTR-HRP EC50
readout-kind: EC50 (nM)
Kindly answer with a numeric value in nM, unit omitted.

Some solved cases for reference:
- compound: "Cc1ccccc1-c1nc(NS(=O)(=O)c2cccc(N3CCC[C@@](C)(C(=O)O)C3)n2)ccc1Cl [Example 447]"
  output-unit: "nM"
  EC50: 2410
- compound: "C[C@@]1(C(=O)O)CCCN(c2cccc(S(=O)(=O)Nc3ccc(Cl)c(-c4ccccc4C4CCC4)n3)n2)C1 [Example 391]"
  output-unit: "nM"
  EC50: 530
- compound: "Cc1ccc(F)cc1-c1nc(NS(=O)(=O)c2cccc(N3CCCC4(CC4C(=O)O)C3)n2)ccc1C(F)(F)F (stereo not shown) [Example 439]"
  output-unit: "nM"
  EC50: 2220

Now for another entry.
Prompt line: I'd like to know its EC50. The compound in question is CC(C)COc1ccccc1-c1nc(NS(=O)(=O)c2cccc(N3CCC[C@@](C)(C(=O)O)C3)n2)ccc1Cl [Example 422]
Response line: 1380

---

target: delF508-CFTR (Homo sapiens, UniProt P13569, DEL508-508); construct: functional activity of the CFTR channel (Chloride ion transport) in patient derived primary human bronchial epithelial cells; experiment: Measurement of delF508-CFTR functional activity in primary human bronchial epithelial cells (HBECs) using Multi-Transepithelial Clamp Circuit (MTECC-24) assay; conditions: primary CF HBECs; test compound added 24h before assay, in the presence of potentiator; mean of at least two replicates; read-out: MTECC24 CFHBEC- EC50
Sequence (P13569 with tags, fused parts or gaps DEL508-508): as above
Structures can show the parent of a compound that is named as a salt.
Listing of entries alongside the reported EC50.

Some solved cases for reference:
- molecule: "CC1(C(=O)O)CCN(c2cccc(S(=O)(=O)Nc3ccc(C(F)(F)F)c(-c4ccccc4Cl)n3)n2)CC1 [Example 238]"
  EC50: "19.6 nM"
- molecule: "Cc1ccc(F)cc1-c1nc(NS(=O)(=O)c2cccc(N[C@@H]3CCOC[C@@H]3O)n2)ccc1Cl [Example 272]"
  EC50: "10.5 nM"
- molecule: "COc1ccc(F)cc1-c1nc(NS(=O)(=O)c2cccc(N3CCN(C(C)(C)C)CC3)n2)ccc1C(F)(F)F [Example 149]"
  EC50: "22.8 nM"
- molecule: "Cc1ccc(C(F)(F)F)cc1-c1nc(NS(=O)(=O)c2cccc(N3CC(O)C3)n2)ccc1Cl [Example 223]"
  EC50: "14.4 nM"
- molecule: "CNC1CCN(c2cccc(S(=O)(=O)Nc3ccc(C(F)(F)F)c(-c4ccccc4C)n3)n2)CC1 [Example 109, Hydrochloride]"
  EC50: "170 nM"
- molecule: "Cc1ccc(F)cc1-c1nc(NS(=O)(=O)c2ccnc(N3CCNCC3)c2)ccc1C(F)(F)F [Example 326]"
  EC50: "203 nM"
- molecule: "Cc1ccc(F)cc1-c1nc(NS(=O)(=O)c2cccc(N3CCN[C@H](CO)C3)n2)ccc1C(F)(F)F [Example 175, Hydrochloride]"
  EC50: "281 nM"
- molecule: "Cc1ccc(F)cc1-c1nc(NS(=O)(=O)c2cccc(N3CCN4C[C@@H](F)C[C@@H]4C3)n2)ccc1Cl [Example 134]"
  EC50: "19 nM"
- molecule: "Cc1ccc(F)cc1-c1nc(NS(=O)(=O)c2ccnc(N3CC(C)(O)C3)c2)ccc1C(F)(F)F [Example 320]"
  EC50: "126 nM"
- molecule: "Cc1ccc(C#N)cc1-c1nc(NS(=O)(=O)c2cccc(N3CCNCC3)n2)ccc1Cl [Example 312]"
  EC50: "458 nM"

Prompt line: Could you share what EC50 was measured for Cc1cccc(C)c1-c1nc(NS(=O)(=O)c2cccc(N3CCN(C(=O)OC(C)(C)C)CC3)n2)ccc1Cl [Example 162] , tested on delF508-CFTR (Homo sapiens, UniProt P13569, DEL508-508)?
Response line: 17.7 nM

Prompt line: Could you share what EC50 was measured for Cc1cccc(C)c1-c1nc(NS(=O)(=O)c2ccnc(N)c2)ccc1Cl [Example 4] , tested on delF508-CFTR (Homo sapiens, UniProt P13569, DEL508-508)?
Response line: 40.8 nM

Prompt line: Could you share what EC50 was measured for Cc1c(C#N)cccc1-c1nc(NS(=O)(=O)c2cccc(N3CC(C)(O)C3)n2)ccc1C(F)(F)F [Example 308] , tested on delF508-CFTR (Homo sapiens, UniProt P13569, DEL508-508)?
Response line: 207 nM

Prompt line: Could you share what EC50 was measured for Nc1cccc(S(=O)(=O)Nc2ccc(Cl)c(-c3ccccc3C(F)(F)F)n2)n1 [Example 55] , tested on delF508-CFTR (Homo sapiens, UniProt P13569, DEL508-508)?
Response line: 15.5 nM

Prompt line: Could you share what EC50 was measured for Cc1ccccc1-c1nc(NS(=O)(=O)c2cccc(N[C@@H]3CCCNC3)n2)ccc1C(F)(F)F [Example 104, Hydrochloride] , tested on delF508-CFTR (Homo sapiens, UniProt P13569, DEL508-508)?
Response line: 24.5 nM

Prompt line: Could you share what EC50 was measured for Cc1ccccc1-c1nc(NS(=O)(=O)c2cccc(N[C@@H]3CCOC[C@@H]3O)n2)ccc1C(F)(F)F (single isomer, unassigned) [Example 276] , tested on delF508-CFTR (Homo sapiens, UniProt P13569, DEL508-508)?
Response line: 18.5 nM

Prompt line: Could you share what EC50 was measured for CCOC(=O)C1(C)CCN(c2cccc(S(=O)(=O)Nc3ccc(Cl)c(-c4ccccc4C)n3)n2)CC1 [Example 254] , tested on delF508-CFTR (Homo sapiens, UniProt P13569, DEL508-508)?
Response line: 3.8 nM

Prompt line: Could you share what EC50 was measured for COc1ccc(Cl)c(-c2nc(NS(=O)(=O)c3cccc(N4CC(O)C4)n3)ccc2C(F)(F)F)c1 [Example 226] , tested on delF508-CFTR (Homo sapiens, UniProt P13569, DEL508-508)?
Response line: 12.9 nM
